Catalogue of pIC50 values
- Test system: 898857-211-R-J1-PDC complex spheroids, growth % test/control
- assay: Anticancer human tumor 898857-211-R-J1-PDC patient-derived melanoma cell line growth inhibition [RAS]
- conditionSummary: curve of first compound; second compound 0.01 µM
Here pIC50 is given on a logarithmic scale as minus log10 of the concentration in mol/L.

Some solved entries appear below for comparison.
CCC(CC)c1cc(NC2CCC(N)C2)n2nccc2n1 (stereo not given) + C=CC(=O)N1CCN(c2nc(OCC3CCCN3C)nc3c(F)c(-c4nc(N)cc(C)c4C(F)(F)F)c(Cl)cc23)C(C)C1 | 6.07
Nc1ccn(C2OC(CO)C(O)C2(F)F)c(=O)n1 (stereo not given) + C=CC(=O)N1CCN(c2nc(OCC3CCCN3C)nc3c(F)c(-c4nc(N)cc(C)c4C(F)(F)F)c(Cl)cc23)C(C)C1 | 8.14
CCN1CCN(Cc2ccc(Nc3ncc(F)c(-c4cc(F)c5nc(C)n(C(C)C)c5c4)n3)nc2)CC1 + C=CC(=O)N1CCN(c2nc(OCC3CCCN3C)nc3c(F)c(-c4nc(N)cc(C)c4C(F)(F)F)c(Cl)cc23)C(C)C1 | 6.50
CC1(C)CCC(Nc2ncc(C(F)(F)F)c(-c3c[nH]c4c(P(C)(C)=O)c(C#N)ccc34)n2)CN1 (stereo not given) + C=CC(=O)N1CCN(c2nc(OCC3CCCN3C)nc3c(F)c(-c4nc(N)cc(C)c4C(F)(F)F)c(Cl)cc23)C(C)C1 | 8.29

Read the next record carefully.
Exercise: pIC50 for CCc1c2c(nc3ccc(O)cc13)-c1cc3c(c(=O)n1C2)COC(=O)[C@]3(O)CC + C=CC(=O)N1CCN(c2nc(OCC3CCCN3C)nc3c(F)c(-c4nc(N)cc(C)c4C(F)(F)F)c(Cl)cc23)C(C)C1 ?
Key: 8.31

----------
Catalogue of viability, T/C values
- System: 898857-211-R-J1-PDC complex spheroids, growth % test/control
- assay: Anticancer human tumor 898857-211-R-J1-PDC cell line growth inhibition [RAS];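 also: spheroids exposed to compound for seven days before readout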;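 as to viability, T/C: 100% = DMSO vehicle control wells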
- conditionSummary: second compound 0.003 µM; first compound 0.1 µM; stronger effect = lower value
Expressed in %, but write only the number.

Some solved entries appear below for comparison.
C=CC(=O)Nc1cc(Nc2nccc(-c3cn(C)c4ccccc34)n2)c(OC)cc1N(C)CCN(C)C + CCn1c(-c2cc(N3CCN(C)CC3)cnc2C(C)OC)c2c3cc(ccc31)-c1csc(n1)CC(NC(=O)C1CC1C)C(=O)N1CCCC(N1)C(=O)OCC(C)(C)C2 | 88.9
C[C@@H](NC(=O)c1ncnc(N)c1Cl)c1ncc(C(=O)Nc2cc(C(F)(F)F)c(Cl)cn2)s1 + CCn1c(-c2cc(N3CCN(C)CC3)cnc2C(C)OC)c2c3cc(ccc31)-c1csc(n1)CC(NC(=O)C1CC1C)C(=O)N1CCCC(N1)C(=O)OCC(C)(C)C2 | 109
CC(C)NCC(C(=O)N1CCN(c2ncnc3c2C(C)CC3O)CC1)c1ccc(Cl)cc1 (centres undefined) + CCn1c(-c2cccnc2C(C)OC)c2c3cc(ccc31)N1CCOC(CC(NC(=O)C(C(C)C)N(C)C(=O)C3(F)CCN(C(=O)C#CC(C)(C)N(C)C)CC3)C(=O)N3CCCC(N3)C(=O)OCC(C)(C)C2)C1 | 117
CC1(O)CCCC1n1c(=O)c(C(F)F)cc2cnc(NC3CCN(S(C)(=O)=O)CC3)nc21 (centres undefined) + CCn1c(-c2cc(N3CCN(C)CC3)cnc2C(C)OC)c2c3cc(ccc31)-c1csc(n1)CC(NC(=O)C1CC1C)C(=O)N1CCCC(N1)C(=O)OCC(C)(C)C2 | 58.5
CCN1CCN(Cc2ccc(Nc3ncc(F)c(-c4cc(F)c5nc(C)n(C(C)C)c5c4)n3)nc2)CC1 + CCn1c(-c2cc(N3CCN(C)CC3)cnc2C(C)OC)c2c3cc(ccc31)-c1csc(n1)CC(NC(=O)C1CC1C)C(=O)N1CCCC(N1)C(=O)OCC(C)(C)C2 | 54.9
CC(C)n1nc(-c2ccc3oc(N)nc3c2)c2c(N)ncnc21 + CCn1c(-c2cccnc2C(C)OC)c2c3cc(ccc31)N1CCOC(CC(NC(=O)C(C(C)C)N(C)C(=O)C3(F)CCN(C(=O)C#CC(C)(C)N(C)C)CC3)C(=O)N3CCCC(N3)C(=O)OCC(C)(C)C2)C1 | 20.4
CC(=O)OC12COC1CC(O)C1(C)C(=O)C(O)C3=C(C)C(OC(=O)C(O)C(NC(=O)OC(C)(C)C)c4ccccc4)CC(O)(C(OC(=O)c4ccccc4)C21)C3(C)C (centres undefined) + CCn1c(-c2cccnc2C(C)OC)c2c3cc(ccc31)N1CCOC(CC(NC(=O)C(C(C)C)N(C)C(=O)C3(F)CCN(C(=O)C#CC(C)(C)N(C)C)CC3)C(=O)N3CCCC(N3)C(=O)OCC(C)(C)C2)C1 | 11.5
C[C@@H](NC(=O)c1ncnc(N)c1Cl)c1ncc(C(=O)Nc2cc(C(F)(F)F)c(Cl)cn2)s1 + CCn1c(-c2cccnc2C(C)OC)c2c3cc(ccc31)N1CCOC(CC(NC(=O)C(C(C)C)N(C)C(=O)C3(F)CCN(C(=O)C#CC(C)(C)N(C)C)CC3)C(=O)N3CCCC(N3)C(=O)OCC(C)(C)C2)C1 | 105

Read the next record carefully.
Exercise: Checklist item: viability, T/C tested on 898857-211-R-J1-PDC complex spheroids, growth % test/control, entry CC(Nc1ccc2c(c1)OCCn1cc(N3C(=O)OCC3C(F)F)nc1-2)C(N)=O (centres undefined) + CCn1c(-c2cc(N3CCN(C)CC3)cnc2C(C)OC)c2c3cc(ccc31)-c1csc(n1)CC(NC(=O)C1CC1C)C(=O)N1CCCC(N1)C(=O)OCC(C)(C)C2 , value?
Key: 95.7
